Tested on: NKL (IL-2 2.5 ng/mL)
Test: percent inhibition of viability; higher = more inhibition
Conditions: 72 h; 1 nM
Quantity Kind: percent inhibition of viability (%)
Numbers only here, please. The scale is %.

Past entries and their recorded results:
{"Compound": "Cc1cn(-c2cc(NC(=O)c3ccc(C)c(Nc4nccc(-c5cccnc5)n4)c3)cc(C(F)(F)F)c2)cn1 [Nilotinib] (max concentration tested 10000 nM)", "Experimental Value": -17.5}
{"Compound": "CCN(c1cc(-c2ccc(CN3CCOCC3)cc2)cc(C(=O)NCc2c(C)cc(C)[nH]c2=O)c1C)C1CCOCC1 [E7438] (max concentration tested 10000 nM)", "Experimental Value": -13.6}
{"Compound": "COc1ccc(S(=O)(=O)Nc2cccnc2Nc2ccc(O)cc2)cc1 [ABT-751] (max concentration tested 10000 nM)", "Experimental Value": -0.28}
{"Compound": "CC(C)(C#N)c1cc(Cn2cncn2)cc(C(C)(C)C#N)c1 [Anastrozole] (max concentration tested 10000 nM)", "Experimental Value": -3.4}
{"Compound": "c1ccc([C@H]2CN3CCSC3=N2)cc1 [Levamisole] (max concentration tested 10000 nM)", "Experimental Value": -11.2}
{"Compound": "CC(=O)Nc1ccc(C(=O)Nc2ccccc2N)cc1 [Tacedinaline] (max concentration tested 1000 nM)", "Experimental Value": -9.56}
{"Compound": "COc1ccc(-c2ccc3c(N4CCOC[C@@H]4C)nc(N4CCOC[C@@H]4C)nc3n2)cc1CO [AZD8055] (max concentration tested 10000 nM)", "Experimental Value": 9.88}
{"Compound": "CON(C)C(=O)N1N=C(c2cc(F)ccc2F)S[C@@]1(CCCN)c1ccccc1 [ARRY-520] (max concentration tested 1000 nM)", "Experimental Value": -1.49}
{"Compound": "Nc1ncnc2c1c(COc1cccc(Cl)c1)nn2C1CCOCC1 (max concentration tested 10000 nM)", "Experimental Value": 2.65}
{"Compound": "CC(C)N(CCCNC(=O)Nc1ccc(C(C)(C)C)cc1)C[C@H]1O[C@@H](n2cc(Br)c3c(N)ncnc32)[C@H](O)[C@@H]1O [SGC0946] (max concentration tested 10000 nM)", "Experimental Value": -15}

Consider O=C(NOC[C@H](O)CO)c1ccc(F)c(F)c1Nc1ccc(I)cc1F (max concentration tested 1000 nM) . Its measured percent inhibition of viability is -2.12

Consider CC(C)C[C@H](NC(=O)[C@H](CCc1ccccc1)NC(=O)CN1CCOCC1)C(=O)N[C@@H](Cc1ccccc1)C(=O)N[C@@H](CC(C)C)C(=O)[C@@]1(C)CO1 [Carfilzomib] (max concentration tested 1000 nM) . Its measured percent inhibition of viability is -11

====

System: IMC-1 (IL-2 20 ng/mL)
Experiment: relative IC50 (inflection point of fitted viability curve, relative to fitted max inhibition); higher = less sensitive
Conditions: 72 h
Assign class by relative IC50: not lower than 2 µM means Fulfilled; lower than 2 µM means Not fulfilled.

{"Compound": "O=[N+]([O-])c1ccc2c(c1)S(=O)(=O)C=C2", "Assigned Category": "Fulfilled"}

Now turn to the next compound.
Form field: relative IC50 at least 2 µM? Entry: CCN(CC)CCCC(C)Nc1ccnc2cc(Cl)ccc12 (centres undefined)
Fulfilled

====

Test system: normal primary NK cells, pool 3 (3 donors) (IL-2 2.5 ng/mL)
Assay: relative IC50 (inflection point of fitted viability curve, relative to fitted max inhibition); higher = less sensitive
Settings: 72 h
Assign class by relative IC50: not lower than 1000 nM means T; lower than 1000 nM means F.

Sample answers from the record:
{"Molecule": "CO[C@@]12[C@H](COC(N)=O)C3=C(C(=O)C(C)=C(N)C3=O)N1C[C@@H]1N[C@@H]12 [Mitomycin C]", "Assigned Category": "T"}
{"Molecule": "CO[C@@H]1[C@H](N(C)C(=O)c2ccccc2)C[C@H]2O[C@]1(C)n1c3ccccc3c3c4c(c5c6ccccc6n2c5c31)C(=O)NC4 [Midostaurin]", "Assigned Category": "F"}
{"Molecule": "CC(C)CC(=O)Nc1n[nH]c2c1CN(C(=O)C1CCN(C)CC1)C2(C)C", "Assigned Category": "T"}
{"Molecule": "CO[C@H]1/C=C\\C=C(/C)C(=O)NC2=CC(=O)C(NCCN(C)C)=C(C[C@@H](C)C[C@H](OC)[C@H](O)[C@@H](C)/C=C(\\C)[C@@H]1OC(N)=O)C2=O [Alvespimycin]", "Assigned Category": "F"}
{"Molecule": "Cc1nc(N)sc1-c1ccnc(Nc2ccc(N3CCOCC3)cc2)n1 [CYC-116]", "Assigned Category": "T"}

Now turn to the next molecule.
Form field: relative IC50 at least 1000 nM? Entry: O=NN(CCCl)C(=O)NC1CCCCC1 [Lomustine]
T

====

Readings of percent inhibition of viability for the listed molecules
System: SNK-6 (IL-2 2.5 ng/mL)
Experiment: percent inhibition of viability; higher = more inhibition
Details: 72 h; 1000 nM
I'd appreciate it if you wrote the number followed by its unit.

Past entries and their recorded results:
{"Molecule": "C#Cc1cccc(Nc2ncnc3cc(OCCOC)c(OCCOC)cc23)c1 [Erlotinib] (max concentration tested 10000 nM)", "percent inhibition of viability": "17.6%"}
{"Molecule": "CN1CCc2c(c3ccccc3n2Cc2ccc(C(=O)NO)cc2)C1 [Tubastatin A] (max concentration tested 10000 nM)", "percent inhibition of viability": "18.5%"}
{"Molecule": "CON(C)C(=O)N1N=C(c2cc(F)ccc2F)S[C@@]1(CCCN)c1ccccc1 [ARRY-520] (max concentration tested 1000 nM)", "percent inhibition of viability": "87.7%"}
{"Molecule": "Cc1c(C(=O)Nc2ccc(N3C[C@@H](C)O[C@@H](C)C3)nc2)cccc1-c1ccc(OC(F)(F)F)cc1 [Sonidegib] (max concentration tested 10000 nM)", "percent inhibition of viability": "15.3%"}

Consider S=C(NCc1ccc2c(c1)OCO2)N1CCN(c2ncnc3c2oc2ccccc23)CC1 [Amuvatinib] (max concentration tested 10000 nM) . Its measured percent inhibition of viability is 40.9%

Consider CNC(=O)c1ccc(C)c(-n2c(C)cc(OCc3ccc(F)cc3F)c(Br)c2=O)c1 (max concentration tested 1000 nM) . Its measured percent inhibition of viability is -14.7%

Consider Cc1nc(N)sc1-c1ccnc(Nc2ccc(N3CCOCC3)cc2)n1 [CYC-116] (max concentration tested 10000 nM) . Its measured percent inhibition of viability is 73.9%

Consider CNNCc1ccc(C(=O)NC(C)C)cc1 [Procarbazine] (max concentration tested 10000 nM) . Its measured percent inhibition of viability is 3.29%

Consider NC(=O)c1cccc2cn(-c3ccc([C@@H]4CCCNC4)cc3)nc12 [Niraparib] (max concentration tested 10000 nM) . Its measured percent inhibition of viability is 0.26%

Consider O=C(NOCC1CC1)c1ccc(F)c(F)c1Nc1ccc(I)cc1Cl (max concentration tested 10000 nM) . Its measured percent inhibition of viability is -19.6%

Consider C[C@@H]1CN(Cc2ccc(F)cc2)[C@@H](C)CN1C(=O)c1cc2c(C(=O)C(=O)N(C)C)cn(C)c2cc1Cl [Talmapimod] (max concentration tested 10000 nM) . Its measured percent inhibition of viability is -23.7%

Consider C[C@]12C=CC(=O)C=C1CC[C@@H]1[C@@H]2C(=O)C[C@@]2(C)[C@H]1CC[C@]2(O)C(=O)CO [Prednisone] (max concentration tested 10000 nM) . Its measured percent inhibition of viability is 19.8%

Consider Nc1cccc2c1C(=O)N(C1CCC(=O)NC1=O)C2=O (stereo not drawn) [Pomalidomide] (max concentration tested 10000 nM) . Its measured percent inhibition of viability is -10.9%

====

Test system: normal primary NK cells, pool 3 (3 donors) (IL-2 2.5 ng/mL)
Assay: percent inhibition of viability; higher = more inhibition
Settings: 72 h; 10 nM
Readings of percent inhibition of viability for the listed compounds
Numbers only here, please. The scale is %.

Past entries and their recorded results:
{"Compound": "Cc1c(NC(=O)OC[C@@H]2COCCN2)cn2ncnc(Nc3ccc4c(cnn4Cc4cccc(F)c4)c3)c12 (max concentration tested 10000 nM)", "Measurement Target": "normal primary NK cells, pool 3 (3 donors) (IL-2 2.5 ng/mL)", "Quantity Kind": "percent inhibition of viability", "Value Units": "%", "Experimental Value": 2.09}
{"Compound": "CC(C)N(CCCNC(=O)Nc1ccc(C(C)(C)C)cc1)C[C@H]1O[C@@H](n2cc(Br)c3c(N)ncnc32)[C@H](O)[C@@H]1O [SGC0946] (max concentration tested 10000 nM)", "Measurement Target": "normal primary NK cells, pool 3 (3 donors) (IL-2 2.5 ng/mL)", "Quantity Kind": "percent inhibition of viability", "Value Units": "%", "Experimental Value": -2.43}
{"Compound": "CC[C@H](CO)Nc1nc(NCc2ccccc2)c2ncn(C(C)C)c2n1 [Seliciclib] (max concentration tested 10000 nM)", "Measurement Target": "normal primary NK cells, pool 3 (3 donors) (IL-2 2.5 ng/mL)", "Quantity Kind": "percent inhibition of viability", "Value Units": "%", "Experimental Value": 1.61}

Consider CS(=O)(=O)N1CCc2c(-c3cnc(N)nc3)nc(N3CCOCC3)nc21 (max concentration tested 10000 nM) . Its measured percent inhibition of viability is -9.29

Consider CCNC(=O)c1noc(-c2cc(C(C)C)c(O)cc2O)c1-c1ccc(CN2CCOCC2)cc1 [Luminespib] (max concentration tested 1000 nM) . Its measured percent inhibition of viability is 68.1

Consider C[C@@H]1COC(Nc2ccc3ncnc(Nc4ccc(OCc5nccs5)c(Cl)c4)c3c2)=N1 [Varlitinib] (max concentration tested 10000 nM) . Its measured percent inhibition of viability is -6.58

Consider O=C(O)c1ccc2c(c1)nc(Nc1cccc(Cl)c1)c1ccncc12 [Silmitasertib] (max concentration tested 10000 nM) . Its measured percent inhibition of viability is -2.89

Consider c1ccc([C@H]2CN3CCSC3=N2)cc1 [Levamisole] (max concentration tested 10000 nM) . Its measured percent inhibition of viability is -11.3

Consider COc1cc2c(cc1-c1c(C)noc1C)ncc1[nH]c(=O)n([C@H](C)c3ccccn3)c12 [I-BET151] (max concentration tested 10000 nM) . Its measured percent inhibition of viability is -4.21
